Molecular target: PPAR-gamma ligand binding domain fused to GAL4 DNA binding domain (UniProt P37231)
Experiment: Transient transfection transactivation assay in CV-1 cells, PPAR-gamma (GAL4 chimera, luciferase reporter)
Conditions: 20-24 hours

>  <compound>
C[C@@H]1CN(C(=O)Cc2ccc(C(F)(F)F)cc2)C[C@H](C)N1S(=O)(=O)c1cccc2c1CC(C(=O)O)C2 (stereo partly drawn) [Example 13]

>  <EC50>
> 100 µM

$$$$
>  <compound>
O=C(O)C1Cc2cccc(S(=O)(=O)N3CCN(C(=O)Cc4ccc(OC(F)(F)F)cc4)CC3)c2C1 (stereo not drawn) [Example 19]

>  <EC50>
5 to 100 µM

$$$$
>  <compound>
C[C@@H]1CN(CCc2ccc(Cl)c(Cl)c2)C[C@H](C)N1S(=O)(=O)c1cccc2c1CC(C(=O)O)C2 (stereo partly drawn) [Example 27]

>  <EC50>
> 100 µM

$$$$
>  <compound>
C[C@@H]1CN(CCc2ccc(C(F)(F)F)c(F)c2)C[C@H](C)N1S(=O)(=O)c1cccc2c1CC(C(=O)O)C2 (stereo partly drawn) [Example 26]

>  <EC50>
> 100 µM

$$$$
>  <compound>
C[C@@H]1CN(Cc2ccc(C(F)(F)F)c(F)c2)C[C@H](C)N1S(=O)(=O)c1cccc2c1CC(C(=O)O)C2 (stereo partly drawn) [Example 1]

>  <EC50>
> 100 µM

$$$$
>  <compound>
C[C@@H]1CN(CCCc2ccc(OC(F)(F)F)cc2)C[C@H](C)N1S(=O)(=O)c1cccc2c1CC(C(=O)O)C2 (stereo partly drawn) [Example 17]

>  <EC50>
5 to 100 µM

$$$$
>  <compound>
O=C(O)C1Cc2cccc(S(=O)(=O)N3CCN(CCc4ccc(OC(F)(F)F)cc4)CC3)c2C1 (stereo not drawn) [Example 15]

>  <EC50>
5 to 100 µM

$$$$
>  <compound>
O=C(O)C1Cc2cccc(S(=O)(=O)N3CCN(C(=O)Cc4ccc(C(F)(F)F)cc4)CC3)c2C1 (stereo not drawn) [Example 20]

>  <EC50>
5 to 100 µM

$$$$
>  <compound>
C[C@@H]1CN(CCc2ccc(SC(F)(F)F)cc2)C[C@H](C)N1S(=O)(=O)c1cccc2c1CC(C(=O)O)C2 (stereo partly drawn) [Example 23]

>  <EC50>
5 to 100 µM

$$$$
>  <compound>
C[C@@H]1CN(Cc2cccc(OC(F)(F)F)c2)C[C@H](C)N1S(=O)(=O)c1cccc2c1CC(C(=O)O)C2 (stereo partly drawn) [Example 3]

>  <EC50>
5 to 100 µM

$$$$
>  <compound>
C[C@@H]1CN(C(=O)c2ccc(OC(F)(F)F)cc2)C[C@H](C)N1S(=O)(=O)c1cccc2c1CC(C(=O)O)C2 (stereo partly drawn) [Example 9]

>  <EC50>
> 100 µM

$$$$
>  <compound>
C[C@@H]1CN(Cc2ccc(SC(F)(F)F)cc2)C[C@H](C)N1S(=O)(=O)c1cccc2c1CC(C(=O)O)C2 (stereo partly drawn) [Example 6]

>  <EC50>
5 to 100 µM

$$$$
>  <compound>
O=C(O)C1Cc2cccc(S(=O)(=O)N3CCN(Cc4cccc(OC(F)(F)F)c4)CC3)c2C1 (stereo not drawn) [Example 2]

>  <EC50>
< 5 µM

$$$$
>  <compound>
O=C(O)C1Cc2cccc(S(=O)(=O)N3CCN(S(=O)(=O)c4ccc(OC(F)(F)F)cc4)CC3)c2C1 (stereo not drawn) [Example 10]

>  <EC50>
5 to 100 µM

$$$$
>  <compound>
C[C@@H]1CN(CCc2ccc(C(F)(F)F)cc2)C[C@H](C)N1S(=O)(=O)c1cccc2c1CC(C(=O)O)C2 (mixture of isomers) [Example 14A]

>  <EC50>
> 100 µM

$$$$
>  <compound>
O=C(O)C1Cc2cccc(S(=O)(=O)N3CCN(C(=O)CCc4ccc(OC(F)(F)F)cc4)CC3)c2C1 (stereo not drawn) [Example 16]

>  <EC50>
> 100 µM

$$$$
>  <compound>
C[C@@H]1CN(Cc2ccc(OC(F)(F)F)c(Cl)c2)C[C@H](C)N1S(=O)(=O)c1cccc2c1CC(C(=O)O)C2 (stereo partly drawn) [Example 4]

>  <EC50>
5 to 100 µM

$$$$
>  <compound>
C[C@@H]1CN(CC(c2ccc(Cl)cc2)c2ccc(Cl)cc2)C[C@H](C)N1S(=O)(=O)c1cccc2c1CC(C(=O)O)C2 (stereo partly drawn) [Example 28]

>  <EC50>
> 100 µM

$$$$
>  <compound>
O=C(O)C1Cc2cccc(S(=O)(=O)N3CCN(CCc4ccc(C(F)(F)F)cc4)CC3)c2C1 (stereo not drawn) [Example 21]

>  <EC50>
5 to 100 µM

$$$$
>  <compound>
C[C@@H]1CN(S(=O)(=O)c2ccc(OC(F)(F)F)cc2)C[C@H](C)N1S(=O)(=O)c1cccc2c1CC(C(=O)O)C2 (stereo partly drawn) [Example 11]

>  <EC50>
5 to 100 µM

$$$$
>  <compound>
C[C@@H]1CN(CCc2ccc(OC(F)(F)F)cc2)C[C@H](C)N1S(=O)(=O)c1cccc2c1CC(C(=O)O)C2 (mixture of isomers) [Example 12A]

>  <EC50>
> 100 µM

$$$$

====

Measured pEC50 accompanies every entry in the list below.
Molecular target: PPAR-alpha ligand binding domain fused to GAL4 DNA binding domain (UniProt Q07869)
Test: Transient transfection transactivation assay in CV-1 cells, PPAR-alpha (GAL4 chimera, luciferase reporter)
Type: cell-based, murine and human
Conditions: 20-24 hours
pEC50: −log10 of the molar value.

>  <compound>
O=C(O)C1Cc2cccc(S(=O)(=O)N3CCN(CCc4ccc(OC(F)(F)F)cc4)CC3)c2C1 (stereo not drawn) [Example 15]

>  <pEC50>
4.00 to 5.30

$$$$
>  <compound>
C[C@@H]1CN(Cc2cccc(OC(F)(F)F)c2)C[C@H](C)N1S(=O)(=O)c1cccc2c1CC(C(=O)O)C2 (stereo partly drawn) [Example 3]

>  <pEC50>
< 4.00

$$$$
>  <compound>
O=C(O)C1Cc2cccc(S(=O)(=O)N3CCN(Cc4cccc(OC(F)(F)F)c4)CC3)c2C1 (stereo not drawn) [Example 2]

>  <pEC50>
< 4.00

$$$$
>  <compound>
O=C(O)C1Cc2cccc(S(=O)(=O)N3CCN(C(=O)Cc4ccc(C(F)(F)F)cc4)CC3)c2C1 (stereo not drawn) [Example 20]

>  <pEC50>
< 4.00

$$$$
>  <compound>
O=C(O)C1Cc2cccc(S(=O)(=O)N3CCN(C(=O)CCc4ccc(OC(F)(F)F)cc4)CC3)c2C1 (stereo not drawn) [Example 16]

>  <pEC50>
< 4.00

$$$$
>  <compound>
O=C(O)C1Cc2cccc(S(=O)(=O)N3CCN(S(=O)(=O)c4ccc(OC(F)(F)F)cc4)CC3)c2C1 (stereo not drawn) [Example 10]

>  <pEC50>
< 4.00

$$$$
>  <compound>
O=C(O)C1Cc2cccc(S(=O)(=O)N3CCN(CCc4ccc(C(F)(F)F)cc4)CC3)c2C1 (stereo not drawn) [Example 21]

>  <pEC50>
4.00 to 5.30

$$$$
>  <compound>
C[C@@H]1CN(CC(c2ccc(Cl)cc2)c2ccc(Cl)cc2)C[C@H](C)N1S(=O)(=O)c1cccc2c1CC(C(=O)O)C2 (stereo partly drawn) [Example 28]

>  <pEC50>
< 4.00

$$$$
>  <compound>
C[C@@H]1CN(C(=O)Cc2ccc(C(F)(F)F)cc2)C[C@H](C)N1S(=O)(=O)c1cccc2c1CC(C(=O)O)C2 (stereo partly drawn) [Example 13]

>  <pEC50>
< 4.00

$$$$
>  <compound>
C[C@@H]1CN(CCc2ccc(Cl)cc2)C[C@H](C)N1S(=O)(=O)c1cccc2c1CC(C(=O)O)C2 (stereo partly drawn) [Example 24]

>  <pEC50>
< 4.00

$$$$
>  <compound>
C[C@@H]1CN(Cc2ccc(OC(F)(F)F)c(Cl)c2)C[C@H](C)N1S(=O)(=O)c1cccc2c1CC(C(=O)O)C2 (stereo partly drawn) [Example 4]

>  <pEC50>
4.00 to 5.30

$$$$
>  <compound>
O=C(O)C1Cc2cccc(S(=O)(=O)N3CCN(CCCc4ccc(OC(F)(F)F)cc4)CC3)c2C1 (stereo not drawn) [Example 22]

>  <pEC50>
4.00 to 5.30

$$$$
>  <compound>
C[C@@H]1CN(CCCc2ccc(OC(F)(F)F)cc2)C[C@H](C)N1S(=O)(=O)c1cccc2c1CC(C(=O)O)C2 (stereo partly drawn) [Example 17]

>  <pEC50>
< 4.00

$$$$
>  <compound>
C[C@@H]1CN(C(=O)CCc2ccc(OC(F)(F)F)cc2)C[C@H](C)N1S(=O)(=O)c1cccc2c1CC(C(=O)O)C2 (stereo partly drawn) [Example 8]

>  <pEC50>
< 4.00

$$$$
>  <compound>
O=C(O)C1Cc2cccc(S(=O)(=O)N3CCN(C(=O)Cc4ccc(OC(F)(F)F)cc4)CC3)c2C1 (stereo not drawn) [Example 19]

>  <pEC50>
< 4.00

$$$$
>  <compound>
O=C(O)C1Cc2cccc(S(=O)(=O)N3CCN(C(=O)c4ccc(OC(F)(F)F)cc4)CC3)c2C1 (stereo not drawn) [Example 18]

>  <pEC50>
< 4.00

$$$$
>  <compound>
C[C@@H]1CN(CCc2ccc(Cl)c(Cl)c2)C[C@H](C)N1S(=O)(=O)c1cccc2c1CC(C(=O)O)C2 (stereo partly drawn) [Example 27]

>  <pEC50>
< 4.00

$$$$
>  <compound>
C[C@@H]1CN(Cc2ccc(SC(F)(F)F)cc2)C[C@H](C)N1S(=O)(=O)c1cccc2c1CC(C(=O)O)C2 (stereo partly drawn) [Example 6]

>  <pEC50>
4.00 to 5.30

$$$$
>  <compound>
C[C@@H]1CN(C(=O)c2ccc(OC(F)(F)F)cc2)C[C@H](C)N1S(=O)(=O)c1cccc2c1CC(C(=O)O)C2 (stereo partly drawn) [Example 9]

>  <pEC50>
< 4.00

$$$$
>  <compound>
C[C@@H]1CN(CCc2ccc(SC(F)(F)F)cc2)C[C@H](C)N1S(=O)(=O)c1cccc2c1CC(C(=O)O)C2 (stereo partly drawn) [Example 23]

>  <pEC50>
4.00 to 5.30

$$$$
>  <compound>
C[C@@H]1CN(CCc2ccc(C(F)(F)F)cc2)C[C@H](C)N1S(=O)(=O)c1cccc2c1CC(C(=O)O)C2 (mixture of isomers) [Example 14A]

>  <pEC50>
< 4.00

$$$$
